The reported measurements were obtained from patent US20230330254A1.

molecular target: human GLP1R (Homo sapiens); assay: Luciferase reporter assay, HEK293/CRE-Luc/hGLP1R (Example 17); type: cell-based; design: engineered to express full-length human GLP1R, cynomolgus GLP1R; expressed in transfected cells; host or cells: HEK293/CRE-Luc; conditions: HEK293/CRE-Luc/hGLP1R; highest RLU / RLU of untreated wells
Sequence (P43220 24-463): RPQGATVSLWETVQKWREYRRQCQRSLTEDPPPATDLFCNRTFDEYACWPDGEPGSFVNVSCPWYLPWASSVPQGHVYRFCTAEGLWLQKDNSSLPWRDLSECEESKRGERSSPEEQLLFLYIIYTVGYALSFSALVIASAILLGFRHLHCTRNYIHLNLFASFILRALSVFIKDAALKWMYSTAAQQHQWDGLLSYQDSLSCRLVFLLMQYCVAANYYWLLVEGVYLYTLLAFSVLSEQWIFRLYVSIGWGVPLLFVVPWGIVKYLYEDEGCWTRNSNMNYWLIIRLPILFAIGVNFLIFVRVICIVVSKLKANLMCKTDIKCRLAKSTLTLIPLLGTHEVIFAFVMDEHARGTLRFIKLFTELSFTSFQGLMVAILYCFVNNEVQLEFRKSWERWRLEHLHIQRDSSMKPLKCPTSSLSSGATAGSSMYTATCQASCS
assay-readout: S/N

So, "CCc1cc(OCCCCNC(=O)[C@H](CO)NC(=O)CNC(=O)CNC(=O)CNC(=O)CNC(=O)[C@H](CO)NC(=O)CNC(=O)CNC(=O)CNC(=O)CNC(=O)CCC(=O)N2Cc3ccccc3C#Cc3ccccc32)ccc1-c1ccc(C[C@H](NC(=O)[C@H](CC(=O)O)NC(=O)[C@H](CO)NC(=O)[C@@H](NC(=O)[C@](C)(Cc2ccccc2F)NC(=O)[C@@H](NC(=O)CNC(=O)[C@H](Cc2nn[nH]n2)NC(=O)C(C)(C)C(=O)NCCc2cnc[nH]2)[C@@H](C)O)[C@@H](C)O)C(=O)N[C@@H](CCCc2cc(C)cc(C)c2)C(N)=O)cc1" ? Its S/N was 258.0

====

Could you please report measured EC50 for the items listed next?
target: human GLP1R (Homo sapiens); assay: Human GLP1R cAMP accumulation assay; assay type: cell-based; set-up: HEK293 cells over-expressing full length human GLP-1R were utilized; expressed in transfected cells; host or cells: HEK293 (HEK293/hGLP1R); conditions: HEK293/hGLP1R cells; Table 4; read-out: cAMP EC50
Where a SMILES comes first, the peptide text is derived from it. [ ]: non-standard residue; d: D form. The star is where a group is joined. Bip(2'-Et,4'-O(CH2)4NH2) = CCc1cc(OCCCCN)ccc1-c1ccc(C[C@H](N)C(=O)O)cc1; Nva(5-(3,5-Me2Ph)) = Cc1cc(C)cc(CCC[C@H](N)C(=O)O)c1; Ala(1H-tetrazol-5-yl) = N[C@@H](Cc1nnn[nH]1)C(=O)O; αMePhe(2-F) = C[C@](N)(Cc1ccccc1F)C(=O)O; X3 = CC(C)(C(=O)*)c1ccn[nH]1

So, CCc1cc(OCCCCN)ccc1-c1ccc(C[C@H](NC(=O)[C@H](CC(=O)O)NC(=O)[C@H](CO)NC(=O)[C@@H](NC(=O)[C@](C)(Cc2ccccc2F)NC(=O)[C@@H](NC(=O)CNC(=O)[C@H](Cc2nn[nH]n2)NC(=O)C(C)(C)c2ccn[nH]2)[C@@H](C)O)[C@@H](C)O)C(=O)N[C@@H](CCCc2cc(C)cc(C)c2)C(N)=O)cc1 [P6] (X3-[Ala(1H-tetrazol-5-yl)]GT[αMePhe(2-F)]TSD[Bip(2'-Et,4'-O(CH2)4NH2)][Nva(5-(3,5-Me2Ph))]-NH2) ? Its EC50 was 0.853 nM

So, "CCc1cc(OCCCCN)ccc1-c1ccc(C[C@H](NC(=O)[C@H](CC(=O)O)NC(=O)[C@H](CO)NC(=O)[C@@H](NC(=O)[C@](C)(Cc2ccccc2F)NC(=O)[C@@H](NC(=O)CNC(=O)[C@H](Cc2nn[nH]n2)NC(=O)[C@H](C)NC(=O)[C@@H](N)Cc2ccc(O)cc2)[C@@H](C)O)[C@@H](C)O)C(=O)N[C@@H](CCCc2cc(C)cc(C)c2)C(N)=O)cc1" ? Its EC50 was 0.37 nM

So, "CCc1cc(OCCCCNC(=O)CNC(=O)CNC(=O)CNC(=O)CNC(=O)[C@H](CO)NC(=O)CCC(=O)N2Cc3ccccc3C#Cc3ccccc32)ccc1-c1ccc(C[C@H](NC(=O)[C@H](CC(=O)O)NC(=O)[C@H](CO)NC(=O)[C@@H](NC(=O)[C@](C)(Cc2ccccc2F)NC(=O)[C@@H](NC(=O)CNC(=O)[C@H](Cc2nn[nH]n2)NC(=O)C(C)(C)C(=O)NCCc2cnc[nH]2)[C@@H](C)O)[C@@H](C)O)C(=O)N[C@@H](CCCc2cc(C)cc(C)c2)C(N)=O)cc1" ? Its EC50 was 0.378 nM

====

target: UniProt P43220; assay: Human GLP1R cAMP accumulation assay; assay type: cell-based; set-up: HEK293 cells over-expressing full length human GLP-1R were utilized; expressed in transfected cells; host or cells: HEK293 (HEK293/hGLP1R); settings: HEK293/hGLP1R cells; Table 4; read-out: cAMP EC50
Where a SMILES comes first, the peptide text is derived from it. [ ]: non-standard residue; d: D form. The star is where a group is joined. Bip(2'-Et,4'-O(CH2)4NH2) = CCc1cc(OCCCCN)ccc1-c1ccc(C[C@H](N)C(=O)O)cc1; Nva(5-(3,5-Me2Ph)) = Cc1cc(C)cc(CCC[C@H](N)C(=O)O)c1; Ala(1H-tetrazol-5-yl) = N[C@@H](Cc1nnn[nH]1)C(=O)O; αMePhe(2-F) = C[C@](N)(Cc1ccccc1F)C(=O)O; X8 = O=C([C@H]1CCN(CCc2cnc[nH]2)C1)*; X6 = CC(C)(C(=O)NO)C(=O)*
assay-readout: pEC50
Hey, just a heads up that pEC50 is the negative log base 10 of the concentration in molar.

So, "CCc1cc(OCCCCN)ccc1-c1ccc(C[C@H](NC(=O)[C@H](CC(=O)O)NC(=O)[C@H](CO)NC(=O)[C@@H](NC(=O)[C@](C)(Cc2ccccc2F)NC(=O)[C@@H](NC(=O)CNC(=O)[C@H](CCC(N)=O)NC(=O)C(C)(C)C(=O)NCCc2cnc[nH]2)[C@@H](C)O)[C@@H](C)O)C(=O)N[C@@H](CCCc2cc(C)cc(C)c2)C(N)=O)cc1" ? Its pEC50 was 9.37

So, "CCc1cc(OCCCCN)ccc1-c1ccc(C[C@H](NC(=O)[C@H](CC(=O)O)NC(=O)[C@H](CO)NC(=O)[C@@H](NC(=O)[C@](C)(Cc2ccccc2F)NC(=O)[C@@H](NC(=O)CNC(=O)[C@H](Cc2nn[nH]n2)NC(=O)[C@@]2(C)CCN(CCc3cnc[nH]3)C2=O)[C@@H](C)O)[C@@H](C)O)C(=O)N[C@@H](CCCc2cc(C)cc(C)c2)C(N)=O)cc1" ? Its pEC50 was 9.93

So, CCc1cc(OCCCCN)ccc1-c1ccc(C[C@H](NC(=O)[C@H](CC(=O)O)NC(=O)[C@H](CO)NC(=O)[C@@H](NC(=O)[C@](C)(Cc2ccccc2F)NC(=O)[C@@H](NC(=O)CNC(=O)[C@H](Cc2nn[nH]n2)NC(=O)C(C)(C)C(=O)NO)[C@@H](C)O)[C@@H](C)O)C(=O)N[C@@H](CCCc2cc(C)cc(C)c2)C(N)=O)cc1 [P5] (X6-[Ala(1H-tetrazol-5-yl)]GT[αMePhe(2-F)]TSD[Bip(2'-Et,4'-O(CH2)4NH2)][Nva(5-(3,5-Me2Ph))]-NH2) ? Its pEC50 was 9.94

So, CCc1cc(OCCCCn2cc(COCCOCCOCCOCCNC(=O)COC3C#CCCCCC3)nn2)ccc1-c1ccc(C[C@H](NC(=O)[C@H](CC(=O)O)NC(=O)[C@H](CO)NC(=O)[C@@H](NC(=O)[C@](C)(Cc2ccccc2F)NC(=O)[C@@H](NC(=O)CNC(=O)[C@H](Cc2nn[nH]n2)NC(=O)C(C)(C)C(=O)NCCc2cnc[nH]2)[C@@H](C)O)[C@@H](C)O)C(=O)N[C@@H](CCCc2cc(C)cc(C)c2)C(N)=O)cc1 (some centres unmarked) ? Its pEC50 was 9.01

So, CCc1cc(OCCCCN)ccc1-c1ccc(C[C@H](NC(=O)[C@H](CC(=O)O)NC(=O)[C@H](CO)NC(=O)[C@@H](NC(=O)[C@](C)(Cc2ccccc2F)NC(=O)[C@@H](NC(=O)CNC(=O)[C@H](Cc2nn[nH]n2)NC(=O)[C@H]2CCN(CCc3cnc[nH]3)C2)[C@@H](C)O)[C@@H](C)O)C(=O)N[C@@H](CCCc2cc(C)cc(C)c2)C(N)=O)cc1 [P16-S] (X8-[Ala(1H-tetrazol-5-yl)]GT[αMePhe(2-F)]TSD[Bip(2'-Et,4'-O(CH2)4NH2)][Nva(5-(3,5-Me2Ph))]-NH2) ? Its pEC50 was 9.26

====

biological target: human GLP1R (Homo sapiens); assay: Luciferase reporter assay, HEK293/CRE-Luc/hGLP1R cells (Example 11); format: cell-based; set-up: engineered to express full-length human GLP1R, cynomolgus GLP1R; expressed in transfected cells; host or cells: HEK293/CRE-Luc; conditions: Table 11; Experiment A
Where a SMILES comes first, the peptide text is derived from it. [ ]: non-standard residue; d: D form. The star is where a group is joined. Bip(2'-Et,4'-O(CH2)4N3) = CCc1cc(OCCCCN=[N+]=[N-])ccc1-c1ccc(C[C@H](N)C(=O)O)cc1; Bip(2'-Et,4'-O(CH2)4NH2) = CCc1cc(OCCCCN)ccc1-c1ccc(C[C@H](N)C(=O)O)cc1; Malonyl(2,2-Me2,histaminyl) = CC(C)(C(=O)NCCc1cnc[nH]1)C(=O)*; Nva(5-(3,5-Me2Ph)) = Cc1cc(C)cc(CCC[C@H](N)C(=O)O)c1; Ala(1H-tetrazol-5-yl) = N[C@@H](Cc1nnn[nH]1)C(=O)O; αMePhe(2-F) = C[C@](N)(Cc1ccccc1F)C(=O)O; X4 = CC(C)(C(=O)O)C(=O)*
assay-readout: HEK293/CRE-LUC/hGLP1R S/N
API note: the answer field is a bare number with no unit suffix.

The reported HEK293/CRE-LUC/hGLP1R S/N value, human GLP1R (Homo sapiens), for CCc1cc(OCCCCN)ccc1-c1ccc(C[C@H](NC(=O)[C@H](CC(=O)O)NC(=O)[C@H](CO)NC(=O)[C@@H](NC(=O)[C@](C)(Cc2ccccc2F)NC(=O)[C@@H](NC(=O)CNC(=O)[C@H](Cc2nn[nH]n2)NC(=O)[C@H](C)NC(=O)[C@H](Cc2c[nH]cn2)NC(=O)[C@@H](N)CCC(N)=O)[C@@H](C)O)[C@@H](C)O)C(=O)N[C@@H](CCCc2cc(C)cc(C)c2)C(N)=O)cc1 [P13] (H-QHA[Ala(1H-tetrazol-5-yl)]GT[αMePhe(2-F)]TSD[Bip(2'-Et,4'-O(CH2)4NH2)][Nva(5-(3,5-Me2Ph))]-NH2) reads 69.5

The reported HEK293/CRE-LUC/hGLP1R S/N value, human GLP1R (Homo sapiens), for CCc1cc(OCCCCN)ccc1-c1ccc(C[C@H](NC(=O)[C@H](CC(=O)O)NC(=O)[C@H](CO)NC(=O)[C@@H](NC(=O)[C@](C)(Cc2ccccc2F)NC(=O)[C@@H](NC(=O)CNC(=O)[C@H](Cc2nn[nH]n2)NC(=O)[C@H](C)NC(=O)[C@@H](N)Cc2cnc[nH]2)[C@@H](C)O)[C@@H](C)O)C(=O)N[C@@H](CCCc2cc(C)cc(C)c2)C(N)=O)cc1 [P10] (H-HA[Ala(1H-tetrazol-5-yl)]GT[αMePhe(2-F)]TSD[Bip(2'-Et,4'-O(CH2)4NH2)][Nva(5-(3,5-Me2Ph))]-NH2) reads 45.1

The reported HEK293/CRE-LUC/hGLP1R S/N value, human GLP1R (Homo sapiens), for CCc1cc(OCCCCN=[N+]=[N-])ccc1-c1ccc(C[C@H](NC(=O)[C@H](CC(=O)O)NC(=O)[C@H](CO)NC(=O)[C@@H](NC(=O)[C@](C)(Cc2ccccc2F)NC(=O)[C@@H](NC(=O)CNC(=O)[C@H](Cc2nn[nH]n2)NC(=O)C(C)(C)C(=O)NCCc2cnc[nH]2)[C@@H](C)O)[C@@H](C)O)C(=O)N[C@@H](CCCc2cc(C)cc(C)c2)C(N)=O)cc1 [P8] ({Malonyl(2,2-Me2,histaminyl)}-[Ala(1H-tetrazol-5-yl)]GT[αMePhe(2-F)]TSD[Bip(2'-Et,4'-O(CH2)4N3)][Nva(5-(3,5-Me2Ph))]-NH2) reads 65.8

The reported HEK293/CRE-LUC/hGLP1R S/N value, human GLP1R (Homo sapiens), for CCc1cc(OCCCCN)ccc1-c1ccc(C[C@H](NC(=O)[C@H](CC(=O)O)NC(=O)[C@H](CO)NC(=O)[C@@H](NC(=O)[C@](C)(Cc2ccccc2F)NC(=O)[C@@H](NC(=O)CNC(=O)[C@H](Cc2nn[nH]n2)NC(=O)C(C)(C)C(=O)O)[C@@H](C)O)[C@@H](C)O)C(=O)N[C@@H](CCCc2cc(C)cc(C)c2)C(N)=O)cc1 [P3] (X4-[Ala(1H-tetrazol-5-yl)]GT[αMePhe(2-F)]TSD[Bip(2'-Et,4'-O(CH2)4NH2)][Nva(5-(3,5-Me2Ph))]-NH2) reads 46.3

The reported HEK293/CRE-LUC/hGLP1R S/N value, human GLP1R (Homo sapiens), for CCc1cc(OCCCCN)ccc1-c1ccc(C[C@H](NC(=O)[C@H](CC(=O)O)NC(=O)[C@H](CO)NC(=O)[C@@H](NC(=O)[C@](C)(Cc2ccccc2F)NC(=O)[C@@H](NC(=O)CNC(=O)[C@H](Cc2nn[nH]n2)NC(=O)C(C)(C)C(=O)NCCc2cnc[nH]2)[C@@H](C)O)[C@@H](C)O)C(=O)N[C@@H](CCCc2cc(C)cc(C)c2)C(N)=O)cc1 [P9] ({Malonyl(2,2-Me2,histaminyl)}-[Ala(1H-tetrazol-5-yl)]GT[αMePhe(2-F)]TSD[Bip(2'-Et,4'-O(CH2)4NH2)][Nva(5-(3,5-Me2Ph))]-NH2) reads 75.2
